# assayTarget: Ubiquitin carboxyl-terminal hydrolase 7 (Homo sapiens) (UniProt Q93009)
# Sequence (Q93009 whole entry, looked up): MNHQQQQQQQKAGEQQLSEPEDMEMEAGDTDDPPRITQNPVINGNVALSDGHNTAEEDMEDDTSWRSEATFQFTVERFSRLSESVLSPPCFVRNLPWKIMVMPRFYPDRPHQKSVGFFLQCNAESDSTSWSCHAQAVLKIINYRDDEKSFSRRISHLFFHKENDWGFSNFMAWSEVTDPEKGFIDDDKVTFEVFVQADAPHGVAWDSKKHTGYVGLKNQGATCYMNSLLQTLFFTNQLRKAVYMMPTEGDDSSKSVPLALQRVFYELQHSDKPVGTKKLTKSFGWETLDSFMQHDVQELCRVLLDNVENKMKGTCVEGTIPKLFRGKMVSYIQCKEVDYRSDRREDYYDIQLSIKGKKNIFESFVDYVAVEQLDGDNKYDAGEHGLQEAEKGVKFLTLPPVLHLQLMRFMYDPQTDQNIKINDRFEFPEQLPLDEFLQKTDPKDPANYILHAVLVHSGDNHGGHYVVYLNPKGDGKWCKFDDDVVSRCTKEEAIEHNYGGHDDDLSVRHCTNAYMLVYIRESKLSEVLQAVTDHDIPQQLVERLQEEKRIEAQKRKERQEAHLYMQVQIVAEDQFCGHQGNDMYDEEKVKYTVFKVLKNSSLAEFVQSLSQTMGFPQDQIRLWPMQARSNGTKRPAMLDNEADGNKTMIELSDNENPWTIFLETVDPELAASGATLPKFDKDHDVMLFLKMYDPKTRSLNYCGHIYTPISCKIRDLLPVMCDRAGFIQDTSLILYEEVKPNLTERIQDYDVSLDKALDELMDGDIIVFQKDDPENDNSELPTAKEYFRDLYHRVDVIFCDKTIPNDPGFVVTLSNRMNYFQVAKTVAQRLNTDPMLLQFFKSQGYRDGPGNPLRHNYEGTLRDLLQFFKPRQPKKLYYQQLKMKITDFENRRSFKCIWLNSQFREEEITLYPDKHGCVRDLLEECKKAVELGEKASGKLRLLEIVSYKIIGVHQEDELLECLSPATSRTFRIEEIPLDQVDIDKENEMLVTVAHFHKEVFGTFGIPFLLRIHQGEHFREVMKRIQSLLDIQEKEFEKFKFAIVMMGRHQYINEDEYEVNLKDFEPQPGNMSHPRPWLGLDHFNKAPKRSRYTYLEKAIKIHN
# assayProcedure: Ubiquitin-specific protease 7 DUB inhibitors, concentration-effect, biochemical, validation of primary hits (AID 1645861)
# protocolConditions: purified USP7, Ub-rhodamine cleavage fluorescence, 60 min
The source made the active and inactive calls.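 The calls were made as follows: active = compounds whose peak USP7 inhibition across the dose series reached 30% or more; inactive = the rest.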
Hello, when you answer, please use one of the following outcomes: true (1) = active, false (0) = inactive

As a guide, the following entries are already answered.
> print(dat)
                                   compound                               assaytarget  qualitativelabel
1  C[C@H](Cc1cc2c(cc1O)OCO2)[C@@H](C)Cc1cc2c(cc1O)OCO2  Ubiquitin carboxyl-terminal hydrolase 7 (Homo sapiens) (UniProt Q93009)         false (0)
2  COc1ccc(-c2nc(Cn3nnc(C(=O)Nc4ccc(C)c(C)c4)c3N)c(C)o2)cc1  Ubiquitin carboxyl-terminal hydrolase 7 (Homo sapiens) (UniProt Q93009)         false (0)
3  CC(NC(=O)c1ccccc1)c1nc2ccccc2n1CC(=O)Nc1ccc(C#N)cc1 (centres undefined)  Ubiquitin carboxyl-terminal hydrolase 7 (Homo sapiens) (UniProt Q93009)         false (0)

Qu. Please share the test call associated with CSCCC(NC(=O)c1ccccc1)c1nc2ccccc2n1CC(=O)Nc1ccccc1 (centres undefined) .
Ans. false (0)

Qu. Please share the test call associated with CCc1nc(SCC(=O)Nc2ccc(Cl)c(Cl)c2)c2oc3ccccc3c2n1 .
Ans. false (0)

Qu. Please share the test call associated with O=C(NC1(O)C(=O)c2ccccc2C1=O)c1cccc2c1-c1ccccc1C2=O .
Ans. false (0)

Qu. Please share the test call associated with Cc1nc(C(=O)NC2(O)C(=O)c3ccccc3C2=O)cs1 .
Ans. false (0)

Qu. Please share the test call associated with Cc1cccc(Cl)c1NC(=O)Nc1ccc(NC(=O)c2ccccc2O)cc1 .
Ans. false (0)

Qu. Please share the test call associated with Cc1ccc(-n2cc(-c3noc(C(=O)Nc4ccc(F)cc4C)n3)nn2)cc1 .
Ans. false (0)

Qu. Please share the test call associated with N#Cc1c(-c2ccc(Cl)cc2)cc(-c2cccc(Br)c2)[nH]c1=O .
Ans. false (0)

Qu. Please share the test call associated with Cc1nn(-c2ccccc2)c2c1N=C1C(Cl)=CC(Cl)=CN1C21C(=O)Nc2ccccc21 (centres undefined) .
Ans. true (1)

Qu. Please share the test call associated with COc1ccccc1-c1nc(-c2cn(-c3cccc(Cl)c3)nn2)no1 .
Ans. true (1)

Qu. Please share the test call associated with Cc1ccc(CNC(=O)CCCn2c(=O)c3sccc3n(CC(=O)OCc3ccccc3)c2=O)cc1 .
Ans. false (0)

Qu. Please share the test call associated with O=C1C(=O)N(c2nc3ccc(F)cc3s2)C(c2ccc(F)cc2)/C1=C(\O)c1ccc(F)cc1 (centres undefined) .
Ans. true (1)

Qu. Please share the test call associated with N#Cc1cccc(NC(=O)Nc2cccn(Cc3ccccc3F)c2=O)c1 .
Ans. false (0)

Qu. Please share the test call associated with O=c1[nH]c(C2CCN(S(=O)(=O)c3ccc(S(=O)(=O)NC4CCCCC4)cc3)CC2)nc2c1nnn2Cc1c(F)cccc1Cl .
Ans. false (0)

Qu. Please share the test call associated with CCn1cc2c(n1)c(=O)n(Cc1ccccc1)c(=O)n2CC(=O)Nc1ccc(OC)cc1 .
Ans. false (0)

Qu. Please share the test call associated with O=C1c2c(O)cccc2C2(Oc3cccc4cccc(c34)O2)C2OC12 (centres undefined) .
Ans. false (0)

Qu. Please share the test call associated with CC(NC(=O)c1ccccc1)c1nc2ccccc2n1CC(=O)Nc1ccc(OC(F)(F)F)cc1 (centres undefined) .
Ans. false (0)

Qu. Please share the test call associated with COc1ccc(-c2nc3c(c(=O)c4ccccc4n3C)c(=O)n2Cc2ccco2)cc1 .
Ans. true (1)

Qu. Please share the test call associated with COc1ccc(NC(=O)Cn2cc(C(=O)c3ccc(Cl)cc3)c(=O)c3cc(F)ccc32)cc1 .
Ans. true (1)

Qu. Please share the test call associated with CCCCCCCCCc1cc(OC(=O)c2c(CCCCCCCCC)cc(O)cc2O[C@@H]2O[C@H](CO)[C@@H](O)[C@H](O)[C@H]2O)cc(O)c1C(=O)O .
Ans. true (1)

Qu. Please share the test call associated with Oc1cccc2c(-c3ccc(O)c4c(O)cccc34)ccc(O)c12 .
Ans. false (0)

Qu. Please share the test call associated with O=C1c2ccccc2-c2nnc(-c3ccncc3)cc21 .
Ans. false (0)

Qu. Please share the test call associated with Cc1nc(N2CCCC2)ncc1-c1cc(=O)[nH]c(Nc2ccc(Cl)cc2Cl)n1 .
Ans. false (0)
